experiment: Inhibition of MAOA by spectrofluorimetry
pIC50: −log10 of the molar value.
Classify by measured pIC50: YES if it is equal to or exceeds 7, NO if it is smaller.

For orientation, consider the following solved cases.
INSERT INTO results (structure_notation, label) VALUES
  ('C/C(=N\Nc1nc2ccccc2nc1Cc1ccccc1)c1ccc(N)cc1', 'YES'),
  ('Oc1ccc(/C=N/Nc2nc3ccccc3nc2Cc2ccccc2)cc1', 'YES'),
  ('COc1ccc(/C=N/Nc2nc3ccccc3nc2Cc2ccccc2)cc1OC', 'YES');

Req: Check this molecule for pIC50 at or above 7: O=C(c1ccccc1)c1nc2ccccc2n2cnnc12
Resp: NO

Req: Entry Clc1ccccc1/C=N/Nc1nc2ccccc2nc1Cc1ccccc1 : is its pIC50 no less than 7?
Resp: YES

###

target: Amine oxidase [flavin-containing] B (Bos taurus)
pIC50: −log10 of the molar value.
// 0 (no) strictly below 3 in pIC50; 1 (yes) otherwise

Field: example entries. Status: answers known.
INSERT INTO measurements (structure_notation, label) VALUES
  ('Clc1ccccc1-c1nnc2c(Cc3ccccc3)nc3ccccc3n12', '1 (yes)'),
  ('C/C(=N\Nc1nc2ccccc2nc1Cc1ccccc1)c1ccc([N+](=O)[O-])cc1', '1 (yes)'),
  ('CN(C)c1ccc(-c2nnc3c(C(=O)c4ccccc4)nc4ccccc4n23)cc1', '0 (no)');

Alright, here's another molecule for you.
Req: hey, is pIC50 for this one >= 3? O=C(c1ccccc1)c1nc2ccccc2n2c(-c3ccccc3Cl)nnc12
Resp: 1 (yes)

###

test: Inhibition of MAOA by spectrofluorimetry
readout-kind: pIC50
// pIC50: -log10(molar conc.)

Consider the reported pIC50 for these compounds:
INSERT INTO measurements (structure_notation, assay_result) VALUES
  ('C/C(=N\Nc1nc2ccccc2nc1Cc1ccccc1)c1ccccn1', 7.04),
  ('O=C(c1ccccc1)c1nc2ccccc2n2c(-c3ccc([N+](=O)[O-])cc3)nnc12', 7.66);

So, COc1ccc(-c2nnc3c(C(=O)c4ccccc4)nc4ccccc4n23)cc1OC ? Its pIC50 was 8.17

###

Quick reference for Ratio IC50 among some compounds
test: Selectivity index ratio of IC50 for MAOB to IC50 for MAOA
Provide a numeric answer; units are not to be included.

INSERT INTO results (structure_notation, readout_kind, assay_result) VALUES
  ('C/C(=N\Nc1nc2ccccc2nc1Cc1ccccc1)c1ccccn1', 'Ratio IC50', 10800),
  ('Clc1ccccc1-c1nnc2c(Cc3ccccc3)nc3ccccc3n12', 'Ratio IC50', 11800),
  ('O=C(c1ccccc1)c1nc2ccccc2n2c(-c3ccccc3Cl)nnc12', 'Ratio IC50', 4310),
  ('CN(C)c1ccc(-c2nnc3c(C(=O)c4ccccc4)nc4ccccc4n23)cc1', 'Ratio IC50', '2.7e+06'),
  ('C=NNc1nc2ccccc2nc1Cc1ccccc1', 'Ratio IC50', 10400);

// sample C/C(=N\Nc1nc2ccccc2nc1Cc1ccccc1)c1ccccc1 , its Ratio IC50 was 12400

get_value(item= COc1ccc(/C(C)=N/Nc2nc3ccccc3nc2Cc2ccccc2)cc1 , readout=Ratio IC50) returns 3140

Lab book: Ratio IC50 of C(=N\Nc1nc2ccccc2nc1Cc1ccccc1)/c1ccccc1 noted as 3950

Lab book: Ratio IC50 of O=C(c1ccccc1)c1nc2ccccc2n2cnnc12 noted as 1250

compound c1ccc(Cc2nc3ccccc3n3cnnc23)cc1 , Ratio IC50 observed: 1090

Kindly note the recorded Ratio IC50 for C/C(=N\Nc1nc2ccccc2nc1Cc1ccccc1)c1ccc(C)cc1 , which is 8600

Ratio IC50 measured on Clc1ccccc1/C=N/Nc1nc2ccccc2nc1Cc1ccccc1 = 15000

Ratio IC50 for C/C(=N\Nc1nc2ccccc2nc1Cc1ccccc1)c1cccs1 is 13300
